# method description: Food effect analysis of Test Formulation (Fasted Study vs Fed Study)
# Format: in vivo, human
# condition notes: human, plasma, oral, Test Formulation single dose, fasting (n = 44), least-squares geometric mean; read-out: AUC(0-24 h) LSmeans Fasted
# Source text: Objective: The objective of this analysis was to investigate the effect of food on the single-dose PK of Test Formulation using fasted and fed PK data from two studies, referred to as “Fasted Study” and “Fed Study,” respectively below. Methodology. […]
quantity measured: AUC(0-t) (ng·h/mL)
Just the number in ng·h/mL, nothing appended.

Find the recorded AUC(0-t) belonging to Cc1nc(Nc2ncc(C(=O)Nc3c(C)cccc3Cl)s2)cc(N2CCN(CCO)CC2)n1 [Dasatinib, dasatinib] and report it.
433

* * *

# method description: Food effect analysis of Test Formulation (Fasted Study vs Fed Study)
# Assay type: in vivo, human
# condition notes: human, plasma, oral, Test Formulation single dose, fed (n = 27), least-squares geometric mean; read-out: Cmax LSmeans Fed
quantity measured: Cmax (µg/mL)
Just the number in µg/mL, nothing appended.

Find the recorded Cmax belonging to Cc1nc(Nc2ncc(C(=O)Nc3c(C)cccc3Cl)s2)cc(N2CCN(CCO)CC2)n1 and report it.
0.067

* * *

# method description: Food effect analysis of Test Formulation (Fasted Study vs Fed Study)
# Type: in vivo, human
# condition notes: human, plasma, oral, Test Formulation single dose, fasting (n = 44), least-squares geometric mean; read-out: AUC(0-∞) LSmeans Fasted
quantity measured: AUC(0-inf) (µg·h/mL)
Just the number in µg·h/mL, nothing appended.

Find the recorded AUC(0-inf) belonging to Cc1nc(Nc2ncc(C(=O)Nc3c(C)cccc3Cl)s2)cc(N2CCN(CCO)CC2)n1 and report it.
0.446
